- system.tested: c-fms (Homo sapiens, UniProt P07333)
- Sequence (P07333 20-972): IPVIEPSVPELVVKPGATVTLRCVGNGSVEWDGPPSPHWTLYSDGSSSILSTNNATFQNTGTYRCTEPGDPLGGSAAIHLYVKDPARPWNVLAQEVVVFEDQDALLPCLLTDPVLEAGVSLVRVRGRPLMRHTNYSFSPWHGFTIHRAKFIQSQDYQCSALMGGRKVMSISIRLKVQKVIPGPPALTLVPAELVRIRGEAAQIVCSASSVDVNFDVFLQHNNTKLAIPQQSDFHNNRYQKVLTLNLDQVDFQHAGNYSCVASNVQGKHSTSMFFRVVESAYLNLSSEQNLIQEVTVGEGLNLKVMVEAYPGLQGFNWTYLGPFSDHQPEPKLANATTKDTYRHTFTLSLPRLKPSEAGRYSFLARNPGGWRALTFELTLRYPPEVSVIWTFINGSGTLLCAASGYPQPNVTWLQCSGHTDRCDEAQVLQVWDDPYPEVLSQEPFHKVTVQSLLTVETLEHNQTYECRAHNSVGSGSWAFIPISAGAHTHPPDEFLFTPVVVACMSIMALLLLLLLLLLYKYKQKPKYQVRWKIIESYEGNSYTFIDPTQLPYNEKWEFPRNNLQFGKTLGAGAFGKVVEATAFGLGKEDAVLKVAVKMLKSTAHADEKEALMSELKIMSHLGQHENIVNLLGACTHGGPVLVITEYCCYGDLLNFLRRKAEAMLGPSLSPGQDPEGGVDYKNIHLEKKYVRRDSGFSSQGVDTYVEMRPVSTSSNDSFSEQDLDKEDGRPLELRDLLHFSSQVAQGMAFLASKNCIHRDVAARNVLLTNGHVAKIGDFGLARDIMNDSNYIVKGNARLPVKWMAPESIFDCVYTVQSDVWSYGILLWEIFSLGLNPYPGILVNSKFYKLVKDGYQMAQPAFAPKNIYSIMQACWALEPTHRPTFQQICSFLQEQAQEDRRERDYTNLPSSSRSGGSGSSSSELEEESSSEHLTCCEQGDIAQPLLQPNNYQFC
- experiment.notes: c-fms autophosphorylation, fluorescence polarization competition immunoassay
- Format: biochemical
- setup.conditions: test concentration 0.1 μM; 10 nM c-fms, 1 mM ATP; read-out: c-fms Autophosphorylation Percent Inhibition, % @ 0.1 μM
Please use TRUE whenever inhibition at 0.1 µM is not below 20%, and FALSE whenever it is.

| compound | assigned.class |
| --- | --- |
| CNC(=O)c1cn(-c2ccc3c(c2)CCC3)c2nc(NCCOC)ncc2c1=O [Cpd 16] | FALSE |
| CNC(=O)c1cn(C2CCCCC2)c2nc(NCCc3ccc(OC)cc3)ncc2c1=O [Cpd 58] | FALSE |
| COCCNc1ncc2c(=O)c(C(N)=O)cn(C3CCCCC3)c2n1 [Cpd 35] | TRUE |
| NC(=O)c1cn(C2CCCCC2)c2nc(NCCCN3CCCC3)ncc2c1=O [Cpd 34] | TRUE |
| CNC(=O)c1cn(-c2ccc3c(c2)CCC3)c2nc(NCCCN(C)C)ncc2c1=O [Cpd 12] | FALSE |
| CN1CCN(CCCNc2ncc3c(=O)c(C(N)=O)cn(-c4ccc5c(c4)CCC5)c3n2)CC1 [Cpd 1] | TRUE |
| NC(=O)c1cn(-c2ccc3c(c2)CCC3)c2nc(NCCCN3CCCC3)ncc2c1=O [Cpd 9] | FALSE |
| NC(=O)c1cn(-c2ccc3c(c2)CCC3)c2nc(NCCN3CCCCC3)ncc2c1=O [Cpd 2] | FALSE |
| COc1ccc(CCNc2ncc3c(=O)c(C(N)=O)cn(C4CCCCC4)c3n2)cc1 [Cpd 37] | TRUE |
| CONC(=O)c1cn(C2CCCCC2)c2nc(NCCCN(C)C)ncc2c1=O [Cpd 42] | FALSE |
| CONC(=O)c1cn(-c2ccc3c(c2)CCC3)c2nc(NCc3cc(OC)cc(OC)c3)ncc2c1=O [Cpd 27] | FALSE |
| CNC(=O)c1cn(-c2ccc3c(c2)CCC3)c2nc(NCCCN3CCOCC3)ncc2c1=O [Cpd 13] | FALSE |
| CNC(=O)c1cn(C2CCCCC2)c2nc(NCCCN3CCOCC3)ncc2c1=O [Cpd 55] | FALSE |
| COCCCNc1ncc2c(=O)c(C(N)=O)cn(C3CCCCC3)c2n1 [Cpd 31] | TRUE |
| CNC(=O)c1cn(-c2ccc3c(c2)CCC3)c2nc(NCCN3CCOCC3)ncc2c1=O [Cpd 18] | FALSE |
| CONC(=O)c1cn(C2CCCCC2)c2nc(NCCN3CCCC3)ncc2c1=O [Cpd 48] | FALSE |
| CONC(=O)c1cn(C2CCCCC2)c2nc(NCCN3CCCCC3)ncc2c1=O [Cpd 50] | FALSE |
| CNC(=O)c1cn(-c2ccc3c(c2)CCC3)c2nc(NCCc3ccc(OC)cc3)ncc2c1=O [Cpd 17] | FALSE |
| COc1cc(CNc2ncc3c(=O)c(C(N)=O)cn(C4CCCCC4)c3n2)cc(OC)c1 [Cpd 40] | FALSE |
| NC(=O)c1cn(C2CCCCC2)c2nc(NCCCn3ccnc3)ncc2c1=O [Cpd 28] | TRUE |
| COc1cc(CNc2ncc3c(=O)c(C(N)=O)cn(-c4ccc5c(c4)CCC5)c3n2)cc(OC)c1 [Cpd 11] | FALSE |
| CNC(=O)c1cn(-c2ccc3c(c2)CCC3)c2nc(NCCCN3CCN(C)CC3)ncc2c1=O [Cpd 15] | FALSE |
| CONC(=O)c1cn(C2CCCCC2)c2nc(NCCCn3ccnc3)ncc2c1=O [Cpd 41] | TRUE |
| CNC(=O)c1cn(C2CCCCC2)c2nc(NCCCn3ccnc3)ncc2c1=O [Cpd 53] | FALSE |
| COCCCNc1ncc2c(=O)c(C(=O)NOC)cn(C3CCCCC3)c2n1 [Cpd 44] | TRUE |
| CONC(=O)c1cn(-c2ccc3c(c2)CCC3)c2nc(NCCCN3CCCC3=O)ncc2c1=O [Cpd 22] | TRUE |
| CONC(=O)c1cn(C2CCCCC2)c2nc(NCCCN3CCCC3)ncc2c1=O [Cpd 46] | TRUE |
| CONC(=O)c1cn(-c2ccc3c(c2)CCC3)c2nc(NCCc3ccc(OC)cc3)ncc2c1=O [Cpd 24] | TRUE |
| CNC(=O)c1cn(C2CCCCC2)c2nc(NCCN3CCCCC3)ncc2c1=O [Cpd 59] | FALSE |
| NC(=O)c1cn(C2CCCCC2)c2nc(NCCCN3CCCC3=O)ncc2c1=O [Cpd 32] | FALSE |
| CNC(=O)c1cn(C2CCCCC2)c2nc(NCCOC)ncc2c1=O [Cpd 57] | FALSE |
| NC(=O)c1cn(C2CCCCC2)c2nc(NCCN3CCCC3)ncc2c1=O [Cpd 36] | FALSE |
| COCCNc1ncc2c(=O)c(C(=O)NOC)cn(C3CCCCC3)c2n1 [Cpd 47] | TRUE |
| COCCNc1ncc2c(=O)c(C(N)=O)cn(-c3ccc4c(c3)CCC4)c2n1 [Cpd 10] | FALSE |
| COCCCNc1ncc2c(=O)c(C(N)=O)cn(-c3ccc4c(c3)CCC4)c2n1 [Cpd 7] | FALSE |
